experiment: Toxicity liver stage against HepG2, at 10uM; format: cell-based; parameters: test concentration 10 uM, cell line HepG2-A16-CD81EGFP; conditions: human, HepG2-A16-CD81EGFP cells; read-out: INHIBITION
parameterMeasured: cytotoxicity at 10 µM (%)
The reply should be a number in %, with the unit left off.

Take a look at these entries with their results.
1) O=S(=O)(C1CC1)N1CC[C@]2(C[C@@H](Oc3ccccn3)CO2)C1 = -10.4
2) Cn1cccc1C(=O)N1CCc2ncnc(N3CCCC3)c2CC1 = -1.31

input: Return value of cytotoxicity at 10 µM for input Cc1nc2ccccc2c(=O)n1CCC(=O)N1CCCC1 , no commentary.
output: -10

input: Return value of cytotoxicity at 10 µM for input O=C(c1ccc(F)c(F)c1)N1CCC[C@]2(C[C@@H](OCC3CC3)CO2)C1 , no commentary.
output: -70.1

input: Return value of cytotoxicity at 10 µM for input Fc1cc(Cl)cnc1N1CCCC(c2nccn2Cc2ccncc2)C1 (stereo not drawn) , no commentary.
output: -2
